System: NCI/ADR-RES ovarian
ASSAY_SUMMARY: NCI tumour cell line growth inhibition, 48 h; in the data active means GI50 below about 0.43 µM; inactive means the rest
Entry note: the call must match one of active, inactive

Worked examples follow.
* CC1=C2[C@@H](CC1)[C@]1(C)O[C@@](C3CCCCC3)(C[C@H]1OC(=O)CO)[C@H]2OC(=O)/C=C/c1ccccc1 | active
* Cc1nc2sc(C(=O)Nc3cccc(Cl)c3C)c(N)c2cc1C(=O)/C=C/c1ccccc1 | active
* Cc1cc(I)cc(CN(C)CCCN2CCSCC2)c1O | inactive
* CC(=O)c1c(C)[nH]c(-c2nc3ccc(N4CCN(C)CC4)cc3[nH]2)c1-c1ccc(OCC2CCOCC2)cc1 | inactive

Prompt line: Write down the call the test reported for this compound. Item: CC(C)(C#N)c1cc(Cn2cncn2)cc(C(C)(C)C#N)c1
Response line: inactive

Prompt line: Write down the call the test reported for this compound. Item: Nc1c(C(=O)c2ccc(Cl)cc2)sc(Nc2ccccc2)c1-c1nc2ccccc2s1
Response line: inactive

Prompt line: Write down the call the test reported for this compound. Item: COc1cc(OC)c(/C=C/S(=O)(=O)Cc2cnc(OC)c(N)c2)c(OC)c1
Response line: active

Prompt line: Write down the call the test reported for this compound. Item: ClCc1cccc(Cn2cnc3c(NC45CC6CC(CC(C6)C4)C5)ncnc32)c1
Response line: inactive

Prompt line: Write down the call the test reported for this compound. Item: NOCC(=O)O
Response line: inactive

Prompt line: Write down the call the test reported for this compound. Item: O=Cc1ccc(-c2cc(C=O)c(-c3cccs3)[nH]2)s1
Response line: inactive

Prompt line: Write down the call the test reported for this compound. Item: COc1ccc(/C=N\NC(=O)CN2CCN(c3cc4c(cc3F)c(=O)c(C(=O)N/N=C/c3ccc(OC)c(OC)c3)cn4C3CC3)CC2)cc1OC
Response line: inactive

Prompt line: Write down the call the test reported for this compound. Item: O=C1c2ccccc2-c2c1c1ccccc1c(=O)n2CCCNCCCn1ccnc1
Response line: inactive

Prompt line: Write down the call the test reported for this compound. Item: CC(=O)[O-].CC(=O)[O-].[Pt+2].c1cscn1.c1cscn1
Response line: inactive

====

Tested on: BT-549 breast
ASSAY_SUMMARY: NCI tumour cell line growth inhibition, 48 h
MEASUREMENT_NAME: GI50

Some molecules with recorded GI50:
* COc1ccc(/C=N\NC(=O)CN2CCN(c3cc4c(cc3F)c(=O)c(C(=O)N/N=C/c3ccc(OC)c(OC)c3)cn4C3CC3)CC2)cc1OC | 1.78 µM
* O=[N+]([O-])c1cc(Cl)c(Cl)c([N+](=O)[O-])c1Cl | 1.81 µM
* C=CCC(N[C@H](CO)c1ccccc1)c1ccc2ccccc2n1 (stereo not given in full) | > 100 µM
* O=c1c2cc(Cl)ccc2oc2ccc(OCCCCCN3CCCCC3)cc12 | 6.26 µM

Please examine the following record next.
Prompt line: Query: GI50; subject: COc1cc2c(cc1OCCCOc1cc3c(cc1OC)C(=O)N1C[C@H](F)C[C@H]1C=N3)N=C[C@@H]1C[C@@H](F)CN1C2=O
Response line: 3.36 µM

====

Test system: NCI/ADR-RES ovarian
ASSAY_SUMMARY: NCI tumour cell line growth inhibition, 48 h
The following compounds are listed with their measured TGI values.

Some compounds with recorded TGI:
- Cc1ccc(-n2cnc3c(N)nc(N)nc32)cc1: > 100 µM
- Cc1ccc2c(c1)C(=O)/C(=N/Nc1ccc(Cl)cc1)CCO2: > 100 µM
- CN1CCC2(CC1)SC[C@H]1C(=O)N(c3ccc(Cl)cc3)C(=O)N12: > 100 µM
- O=[N+]([O-])c1cc(Cl)c(Cl)c([N+](=O)[O-])c1Cl: 3.75 µM
- CCOC(=O)C1=CN/C(=C(/C)C(=O)OC)SC1C(=O)OCC (stereo unspecified): > 100 µM

Please examine the following record next.
Prompt line: Query: TGI; subject: OC(CCN1CCCCC1)(c1ccccc1)c1ccccc1
Response line: > 100 µM

====

Tested on: NCI-H226 lung
ASSAY_SUMMARY: NCI tumour cell line growth inhibition, 48 h; in the data active means GI50 below about 0.43 µM; inactive means the rest
Entry note: the call must match one of active, inactive

Worked examples follow.
• CC[C@H](NC(=O)[C@H](C)NC)C(=O)N1C[C@@H](O)C[C@H]1Cc1c(-c2[nH]c3cc(F)ccc3c2C[C@@H]2C[C@H](O)CN2C(=O)[C@H](CC)NC(=O)[C@H](C)NC)[nH]c2cc(F)ccc12 = inactive
• O=c1c2c(nc3n1CCS3)[nH]c1ccccc12 = inactive
• O=c1c2cc(Cl)ccc2oc2ccc(OCCCCCN3CCCCC3)cc12 = inactive
• Cc1nc2sc(C(=O)Nc3cccc(Cl)c3C)c(N)c2cc1C(=O)/C=C/c1ccccc1 = inactive

Prompt line: Write down the call the test reported for this compound. Item: CCOC(=O)C(Cc1c[nH]c2ccc(N)cc12)(NC(C)=O)C(=O)OCC
Response line: inactive

Prompt line: Write down the call the test reported for this compound. Item: O=c1c(Oc2ccc(F)cc2F)cc2cnc(NC3CCOCC3)nc2n1C1CCS(=O)(=O)CC1
Response line: inactive

Prompt line: Write down the call the test reported for this compound. Item: Cc1cc(C)c([O-])c(CN(C)CCN(C)Cc2cc(C)cc(C)c2[O-])c1.O=C([O-])c1cccc(C(=O)[O-])n1.[Ti+4]
Response line: inactive

Prompt line: Write down the call the test reported for this compound. Item: O=C1c2ccccc2-c2c1c1ccccc1c(=O)n2CCCNCCCn1ccnc1
Response line: active

Prompt line: Write down the call the test reported for this compound. Item: CCOC(=O)C(N)C[S][Sn]([CH3])([CH3])[Cl] (centres undefined)
Response line: inactive

====

System: SNB-19 CNS
ASSAY_SUMMARY: NCI tumour cell line growth inhibition, 48 h
MEASUREMENT_NAME: TGI

* O=C(/C=C/c1ccc([N+](=O)[O-])o1)N1CCN(Cc2ccccc2)CC1 | 30.5 µM
* CCOC(=O)C(Cc1c[nH]c2ccc(N)cc12)(NC(C)=O)C(=O)OCC | > 1000 µM
* CCN1CCN(C(=O)[C@]23CC[C@@H](C)[C@H](C)[C@@H]2C2=CC[C@@H]4[C@@]5(C)C/C(=C/c6ccncc6)C(=O)C(C)(C)[C@@H]5CC[C@@]4(C)[C@]2(C)CC3)CC1 | 2.99 µM
* C/C1=C/C(C)CC(C)OC(=O)C(C)NC(=O)C(Cc2ccc(O)c(I)c2)N(C)C(=O)CNC(=O)C(C)C1 (centres undefined) | > 100 µM
* CCOC(=O)C(N)C[S][Sn]([CH3])([CH3])[Cl] (centres undefined) | > 100 µM

Please examine the following record next.
Prompt line: Query: TGI; subject: Cc1cc(Cl)ccc1NC(=O)CCCC(=O)C1CCCC1=O (centres undefined)
Response line: > 100 µM

====

Test system: A498 renal
ASSAY_SUMMARY: NCI tumour cell line growth inhibition, 48 h
MEASUREMENT_NAME: TGI

Some compounds with recorded TGI:
* CC(C)(C)[Si](C)(C)O[C@@H](C(=O)OC1C=CCCC1)[C@@H](NC(=O)c1ccccc1)c1ccccc1 (stereo partly specified) | > 100 µM
* CCOC(=O)C(SCCO)C(C(=O)OCC)n1cnc2c(N)ncnc21 (stereo unspecified) | 19.2 µM
* CNc1c2cccc(C)c2nc2c(C(=O)NCCN(C)C)cccc12 | 0.935 µM
* Cc1cc(Cl)ccc1NC(=O)CCCC(=O)C1CCCC1=O (stereo unspecified) | > 100 µM
* O=C1CC(=O)NC(=NN2C(=O)/C(=C/C(=O)c3ccco3)N=C2c2ccccc2)N1 | > 100 µM
* CCCCc1c2c(nc3c1CCC/C3=C\c1ccccc1)C(=O)CCC2 | 61.4 µM

Prompt line: Query: TGI; subject: Ic1ncnc2c1ncn2C1CCCO1 (stereo unspecified)
Response line: > 100 µM

Prompt line: Query: TGI; subject: COC(=O)c1cc2c(o1)Sc1ccccc1NC2=O
Response line: > 100 µM

Prompt line: Query: TGI; subject: COc1ccc(N2C(=O)CC(Cl)C2=O)cc1 (stereo unspecified)
Response line: > 100 µM

====

Test system: HOP-62 NSCLC
ASSAY_SUMMARY: NCI tumour cell line growth inhibition, 48 h
MEASUREMENT_NAME: TGI

Some compounds with recorded TGI:
- O=C(O)c1ccc(P(=O)(O)c2ccc(C(=O)O)cc2Br)c(Br)c1: > 100 µM
- CN(C)C=Nc1cccc2nsnc12: > 100 µM
- COC(=O)c1s/c(=N\C(=S)N(C)C)n(-c2ccccc2)c1C(=O)OC: > 100 µM
- O=[N+]([O-])c1cc(Cl)c(Cl)c([N+](=O)[O-])c1Cl: 3.25 µM
- Ic1ncnc2c1ncn2C1CCCO1 (configuration not stated): > 100 µM

Prompt line: Query: TGI; subject: O=C(/C=C/c1ccc(F)cc1)c1ccc(Cl)cc1Cl
Response line: > 100 µM

Prompt line: Query: TGI; subject: CCN(CC)CSc1nc2ccccc2o1
Response line: > 100 µM
